- assay: Mean value of binding constant for Opioid receptors assayed with [3H]DAMGO
Starred links: 1 amine or outer side, 2 acyl side, 3 side chain; linkers in the order of their positions; H or OH if unused. Positions of bridges follow the written chain, without caps; N, C: chain ends. Residues, ends and D or L forms follow the SMILES beside them. Chains are numbered I, II in the order given. Ethylenediamine = C(CN[*:2])N[*:1]
reported.property: pKi
Reminder that pKi is minus the log10 of a molar concentration.

The cases that follow already have their pKi on record.
molecule	pKi
N[C@@H](Cc1ccc(O)cc1)C(=O)N1CCC[C@H]1C(=O)N[C@@H](Cc1ccccc1)C(=O)N[C@@H](Cc1ccccc1)C(=O)NCCCCNC(=O)[C@H](Cc1ccccc1)NC(=O)[C@H](Cc1ccccc1)NC(=O)[C@@H]1CCCN1C(=O)[C@@H](N)Cc1ccc(O)cc1	6.77
COC(=O)[C@H](Cc1ccccc1)NC(=O)[C@H](Cc1ccccc1)NC(=O)[C@@H]1CCCN1C(=O)[C@@H](N)Cc1ccc(O)cc1	8.04
N[C@@H](Cc1ccc(O)cc1)C(=O)N1CCC[C@H]1C(=O)N[C@@H](Cc1ccccc1)C(=O)N[C@@H](Cc1ccccc1)C(=O)NNC(=O)[C@H](Cc1ccccc1)NC(=O)[C@H](Cc1ccccc1)NC(=O)[C@@H]1CCCN1C(=O)[C@@H](N)Cc1ccc(O)cc1	7.02
N[C@@H](Cc1ccc(O)cc1)C(=O)N1CCC[C@H]1C(=O)N[C@@H](Cc1ccccc1)C(=O)N[C@@H](Cc1ccccc1)C(=O)NCCNC(=O)[C@H](Cc1ccccc1)NC(=O)[C@H](Cc1ccccc1)NC(=O)[C@@H]1CCCN1C(=O)[C@@H](N)Cc1ccc(O)cc1	7.06

Moving on to the next molecule.
// pKi lookup, molecule = N[C@@H](Cc1ccc(O)cc1)C(=O)N1CCC[C@H]1C(=O)N[C@@H](Cc1ccccc1)C(=O)NCCNC(=O)[C@H](Cc1ccccc1)NC(=O)[C@@H]1CCCN1C(=O)[C@@H](N)Cc1ccc(O)cc1 (I: H-Tyr-Pro-Phe / II: H-Tyr-Pro-Phe; linker I:C-II:C via Ethylenediamine) , result: 7.58
